Cited source: ChEMBL document CHEMBL1140118

Target: Insulin receptor (Mus musculus, UniProt P15208)
Sequence (P15208 28-748 limits assumed): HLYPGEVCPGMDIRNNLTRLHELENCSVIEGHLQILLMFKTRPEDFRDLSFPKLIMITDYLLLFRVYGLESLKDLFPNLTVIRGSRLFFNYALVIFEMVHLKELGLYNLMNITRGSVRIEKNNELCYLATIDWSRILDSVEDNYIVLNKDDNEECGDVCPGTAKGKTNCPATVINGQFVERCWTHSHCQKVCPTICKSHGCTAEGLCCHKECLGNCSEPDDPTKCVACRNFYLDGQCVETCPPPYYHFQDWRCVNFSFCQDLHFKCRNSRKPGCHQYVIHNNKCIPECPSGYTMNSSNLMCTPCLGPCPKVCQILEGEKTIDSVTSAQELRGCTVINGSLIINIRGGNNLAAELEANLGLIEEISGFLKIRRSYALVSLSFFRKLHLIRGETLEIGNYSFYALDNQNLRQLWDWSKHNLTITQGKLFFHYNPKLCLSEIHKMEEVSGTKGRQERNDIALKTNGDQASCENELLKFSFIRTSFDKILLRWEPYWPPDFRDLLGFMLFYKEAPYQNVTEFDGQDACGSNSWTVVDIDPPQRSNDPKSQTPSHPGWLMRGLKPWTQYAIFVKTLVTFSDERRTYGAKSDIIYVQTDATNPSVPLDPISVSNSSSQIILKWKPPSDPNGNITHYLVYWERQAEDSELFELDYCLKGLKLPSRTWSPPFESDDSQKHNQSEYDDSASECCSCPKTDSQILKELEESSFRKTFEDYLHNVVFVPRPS
Sequence (P15208 753-1372 limits assumed): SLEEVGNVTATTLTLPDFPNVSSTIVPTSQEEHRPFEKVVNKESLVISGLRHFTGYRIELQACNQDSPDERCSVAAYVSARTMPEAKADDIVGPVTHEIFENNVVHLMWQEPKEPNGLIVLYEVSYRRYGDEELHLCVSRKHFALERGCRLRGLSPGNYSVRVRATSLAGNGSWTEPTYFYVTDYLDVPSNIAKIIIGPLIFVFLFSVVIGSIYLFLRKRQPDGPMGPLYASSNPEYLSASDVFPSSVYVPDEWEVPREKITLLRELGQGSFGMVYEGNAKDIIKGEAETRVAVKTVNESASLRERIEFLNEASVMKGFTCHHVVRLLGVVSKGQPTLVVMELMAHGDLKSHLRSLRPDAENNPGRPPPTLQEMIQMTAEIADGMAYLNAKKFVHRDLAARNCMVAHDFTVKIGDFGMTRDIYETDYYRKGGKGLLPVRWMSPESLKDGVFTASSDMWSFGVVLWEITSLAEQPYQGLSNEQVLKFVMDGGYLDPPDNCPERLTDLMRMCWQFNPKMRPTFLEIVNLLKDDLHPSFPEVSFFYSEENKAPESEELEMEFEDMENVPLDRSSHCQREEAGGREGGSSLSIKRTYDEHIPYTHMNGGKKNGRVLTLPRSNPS
Test: Activation of insulin receptor tyrosine kinase in mouse 3T3-L1 cells assessed as increase in 2-deoxy-D-[14C]glucose transport in presence of insulin
Format: cell-based
pEC50: −log10 of the molar value.
Recorded measurements of pEC50, one per entry
Metric name: pEC50

[[record]]
smiles_code = "N#Cc1cccc(NS(=O)(=O)c2ccc3ccc(NC(=O)Nc4ccc5ccc(S(=O)(=O)Nc6cccc(C#N)c6)cc5c4)cc3c2)c1"
system_name = "Insulin receptor (Mus musculus, UniProt P15208)"
rel = "<"
observed_result = 3.70

[[record]]
smiles_code = "N#CN=C(Nc1ccc2ccc(S(=O)(=O)Nc3ccc(Cl)c(C(=O)O)c3)cc2c1)Nc1ccc2ccc(S(=O)(=O)Nc3ccc(Cl)c(C(=O)O)c3)cc2c1"
system_name = "Insulin receptor (Mus musculus, UniProt P15208)"
rel = "<"
observed_result = 3.70

[[record]]
smiles_code = "O=C(Nc1ccc2c(O)cc(S(=O)(=O)Nc3ccc(Cl)c(S(=O)(=O)[O-])c3)cc2c1)Nc1ccc2c(O)cc(S(=O)(=O)Nc3ccc(Cl)c(S(=O)(=O)[O-])c3)cc2c1.[Na+].[Na+]"
system_name = "Insulin receptor (Mus musculus, UniProt P15208)"
rel = "="
observed_result = 5.30

[[record]]
smiles_code = "O=C(Nc1ccc2c(O)cc(S(=O)(=O)Nc3cccc(C(=O)O)c3Cl)cc2c1)Nc1ccc2c(O)cc(S(=O)(=O)Nc3cccc(C(=O)O)c3Cl)cc2c1"
system_name = "Insulin receptor (Mus musculus, UniProt P15208)"
rel = "="
observed_result = 3.92

[[record]]
smiles_code = "O=C(Nc1ccc2ccc(S(=O)(=O)Nc3ccc(Cl)c(C(=O)O)c3)cc2c1)Nc1ccc2ccc(S(=O)(=O)Nc3ccc(Cl)c(C(=O)O)c3)cc2c1"
system_name = "Insulin receptor (Mus musculus, UniProt P15208)"
rel = "="
observed_result = 4.80

[[record]]
smiles_code = "O=C(Nc1ccc2ccc(S(=O)(=O)Nc3cccc(-c4nn[nH]n4)c3)cc2c1)Nc1ccc2ccc(S(=O)(=O)Nc3cccc(-c4nn[nH]n4)c3)cc2c1"
system_name = "Insulin receptor (Mus musculus, UniProt P15208)"
rel = "="
observed_result = 4.27


###

Recorded measurements of EC50, one per entry
Target: Insulin receptor (Mus musculus, UniProt P15208)
Assay: Activation of insulin receptor tyrosine kinase in mouse 3T3-L1 cells assessed as increase in 2-deoxy-D-[14C]glucose transport in presence of insulin
Metric name: EC50 (µM)

[[record]]
smiles_code = "O=C(Nc1ccc2ccc(S(=O)(=O)Nc3ccccc3C(=O)O)cc2c1)Nc1ccc2ccc(S(=O)(=O)Nc3ccccc3C(=O)O)cc2c1"
metric_name = "EC50"
reading_unit = "µM"
rel = "="
observed_result = 41

[[record]]
smiles_code = "O=C(Nc1ccc2c(O)cc(S(=O)(=O)Nc3cccc(C(F)(F)F)c3)cc2c1)Nc1ccc2c(O)cc(S(=O)(=O)Nc3cccc(C(F)(F)F)c3)cc2c1"
metric_name = "EC50"
reading_unit = "µM"
rel = ">"
observed_result = 200

[[record]]
smiles_code = "O=C(Nc1ccc2c(O)cc(S(=O)(=O)Nc3ccccc3C(=O)O)cc2c1)Nc1ccc2c(O)cc(S(=O)(=O)Nc3ccccc3C(=O)O)cc2c1"
metric_name = "EC50"
reading_unit = "µM"
rel = "="
observed_result = 93

[[record]]
smiles_code = "NS(=O)(=O)c1cccc(NS(=O)(=O)c2ccc3ccc(NC(=O)Nc4ccc5ccc(S(=O)(=O)Nc6cccc(S(N)(=O)=O)c6)cc5c4)cc3c2)c1"
metric_name = "EC50"
reading_unit = "µM"
rel = ">"
observed_result = 200

[[record]]
smiles_code = "O=C(Nc1ccc2ccc(S(=O)(=O)Nc3cccc(O)c3)cc2c1)Nc1ccc2ccc(S(=O)(=O)Nc3cccc(O)c3)cc2c1"
metric_name = "EC50"
reading_unit = "µM"
rel = ">"
observed_result = 200

[[record]]
smiles_code = "CN(c1cccc(S(=O)(=O)O)c1)S(=O)(=O)c1ccc2ccc(NC(=O)Nc3ccc4ccc(S(=O)(=O)N(C)c5cccc(S(=O)(=O)O)c5)cc4c3)cc2c1"
metric_name = "EC50"
reading_unit = "µM"
rel = "="
observed_result = 91

[[record]]
smiles_code = "O=C(Nc1ccc2ccc(S(=O)(=O)Nc3ccc(O)c(C(=O)O)c3)cc2c1)Nc1ccc2ccc(S(=O)(=O)Nc3ccc(O)c(C(=O)O)c3)cc2c1"
metric_name = "EC50"
reading_unit = "µM"
rel = "="
observed_result = 9

[[record]]
smiles_code = "O=C(Nc1ccc2ccc(C(=O)Nc3cccc(S(=O)(=O)O)c3)cc2c1)Nc1ccc2ccc(C(=O)Nc3cccc(S(=O)(=O)O)c3)cc2c1"
metric_name = "EC50"
reading_unit = "µM"
rel = ">"
observed_result = 200

[[record]]
smiles_code = "NC(=Nc1ccc2ccc(S(=O)(=O)Nc3ccc(Cl)c(C(=O)O)c3)cc2c1)Nc1ccc2ccc(S(=O)(=O)Nc3ccc(Cl)c(C(=O)O)c3)cc2c1"
metric_name = "EC50"
reading_unit = "µM"
rel = "="
observed_result = 179

[[record]]
smiles_code = "CN(C(=O)N(C)c1ccc2ccc(S(=O)(=O)Nc3ccc(Cl)c(C(=O)O)c3)cc2c1)c1ccc2ccc(S(=O)(=O)Nc3ccc(Cl)c(C(=O)O)c3)cc2c1"
metric_name = "EC50"
reading_unit = "µM"
rel = ">"
observed_result = 200

[[record]]
smiles_code = "O=C(Nc1ccc2ccc(S(=O)(=O)Nc3cccc(C(=O)O)c3)cc2c1)Nc1ccc2ccc(S(=O)(=O)Nc3cccc(C(=O)O)c3)cc2c1"
metric_name = "EC50"
reading_unit = "µM"
rel = "="
observed_result = 24

[[record]]
smiles_code = "CNC(=Nc1ccc2ccc(S(=O)(=O)Nc3ccc(Cl)c(C(=O)O)c3)cc2c1)Nc1ccc2ccc(S(=O)(=O)Nc3ccc(Cl)c(C(=O)O)c3)cc2c1"
metric_name = "EC50"
reading_unit = "µM"
rel = ">"
observed_result = 200

[[record]]
smiles_code = "O=C(Nc1ccc2c(O)cc(S(=O)(=O)Nc3cccc(-c4nn[nH]n4)c3)cc2c1)Nc1ccc2c(O)cc(S(=O)(=O)Nc3cccc(-c4nn[nH]n4)c3)cc2c1"
metric_name = "EC50"
reading_unit = "µM"
rel = "="
observed_result = 73

[[record]]
smiles_code = "O=C(Nc1ccc2ccc(S(=O)(=O)Nc3cccc([N+](=O)[O-])c3)cc2c1)Nc1ccc2ccc(S(=O)(=O)Nc3cccc([N+](=O)[O-])c3)cc2c1"
metric_name = "EC50"
reading_unit = "µM"
rel = ">"
observed_result = 200

[[record]]
smiles_code = "O=C(Nc1ccc2ccc(S(=O)(=O)O)cc2c1)Nc1ccc2ccc(S(=O)(=O)Nc3ccc(O)c(C(=O)O)c3)cc2c1"
metric_name = "EC50"
reading_unit = "µM"
rel = ">"
observed_result = 200

[[record]]
smiles_code = "O=C(Nc1ccc2ccc(S(=O)(=O)Nc3ccccc3)cc2c1)Nc1ccc2ccc(S(=O)(=O)Nc3ccccc3)cc2c1"
metric_name = "EC50"
reading_unit = "µM"
rel = ">"
observed_result = 200

[[record]]
smiles_code = "O=C(Nc1ccc2ccc(S(=O)(=O)Nc3ccc(Cl)c(S(=O)(=O)O)c3)cc2c1)Nc1ccc2ccc(S(=O)(=O)Nc3ccc(Cl)c(S(=O)(=O)O)c3)cc2c1"
metric_name = "EC50"
reading_unit = "µM"
rel = "="
observed_result = 6

[[record]]
smiles_code = "O=C(Nc1ccc2c(O)cc(S(=O)(=O)Nc3ccc(Cl)c(C(=O)O)c3)cc2c1)Nc1ccc2c(O)cc(S(=O)(=O)Nc3ccc(Cl)c(C(=O)O)c3)cc2c1"
metric_name = "EC50"
reading_unit = "µM"
rel = "="
observed_result = 18

[[record]]
smiles_code = "O=C(Nc1ccc2c(O)c(/N=N/c3ccc(/N=N/c4ccc(S(=O)(=O)O)cc4)cc3S(=O)(=O)O)c(S(=O)(=O)O)cc2c1)Nc1ccc2c(O)cc(S(=O)(=O)O)c(/N=N/c3ccc(/N=N/c4ccc(S(=O)(=O)O)cc4)cc3S(=O)(=O)O)c2c1"
metric_name = "EC50"
reading_unit = "µM"
rel = "="
observed_result = 90

[[record]]
smiles_code = "O=C(Nc1ccc2c(O)cc(S(=O)(=O)Nc3cccc(S(=O)(=O)O)c3)cc2c1)Nc1ccc2c(O)cc(S(=O)(=O)Nc3cccc(S(=O)(=O)O)c3)cc2c1"
metric_name = "EC50"
reading_unit = "µM"
rel = "="
observed_result = 26

[[record]]
smiles_code = "O=C(Nc1ccc2c(O)cc(S(=O)(=O)Nc3cccc(C(=O)O)c3)cc2c1)Nc1ccc2c(O)cc(S(=O)(=O)Nc3cccc(C(=O)O)c3)cc2c1"
metric_name = "EC50"
reading_unit = "µM"
rel = "="
observed_result = 43

[[record]]
smiles_code = "O=C(Nc1ccc2c(O)cc(S(=O)(=O)Nc3cccc(CO)c3)cc2c1)Nc1ccc2c(O)cc(S(=O)(=O)Nc3cccc(CO)c3)cc2c1"
metric_name = "EC50"
reading_unit = "µM"
rel = ">"
observed_result = 200

[[record]]
smiles_code = "O=C(Nc1ccc2ccc(S(=O)(=O)O)cc2c1)Nc1ccc2ccc(S(=O)(=O)Nc3ccc(Cl)c(S(=O)(=O)O)c3)cc2c1"
metric_name = "EC50"
reading_unit = "µM"
rel = ">"
observed_result = 200

[[record]]
smiles_code = "CC(=O)N(CCN(C(C)=O)c1ccc2ccc(S(=O)(=O)Nc3ccc(Cl)c(C(=O)O)c3)cc2c1)c1ccc2ccc(S(=O)(=O)Nc3ccc(Cl)c(C(=O)O)c3)cc2c1"
metric_name = "EC50"
reading_unit = "µM"
rel = ">"
observed_result = 200

[[record]]
smiles_code = "O=C(O)c1cc(NS(=O)(=O)c2ccc3ccc(N4CCN(c5ccc6ccc(S(=O)(=O)Nc7ccc(Cl)c(C(=O)O)c7)cc6c5)C4=O)cc3c2)ccc1Cl"
metric_name = "EC50"
reading_unit = "µM"
rel = "="
observed_result = 56

